test: lethal dose (LD16, LD50) in mice; assay type: in vivo, mice of the BALB line; conditions: mouse, in vivo, ip, read-out: LD50 (upper end of dose range 1/16 LD16 -LD50)
Where a name gives a salt, the structure may show the parent alone.
Parameter: LD50
Answer with the value and then the unit.

[Q] Find the recorded LD50 belonging to c1ccc(C2=NN=C(N3CCOCC3)SC2)cc1 [Compound 1, hydrobromide] and report it.
[A] 365 mg/kg
